tested on: A549 NSCLC; test: NCI tumour cell line growth inhibition, 48 h
Lab note: anything with TGI at or over 20 µM counts as y; the rest go in n.

Prompt: Answer whether TGI of Cc1ccc2c(c1)c(Sc1ccc(C(=O)NO)cc1)c1n2CN(C)CC1 is greater than or equal to 20 µM.
Completion: n

Prompt: Answer whether TGI of COCCNc1ccc2c3c(cccc13)C(=O)N(CCN(C)C)C2=O is greater than or equal to 20 µM.
Completion: y

Prompt: Answer whether TGI of CCCn1cc2c(SC)nc(SC)nc2n1 is greater than or equal to 20 µM.
Completion: y

Prompt: Answer whether TGI of CC(=O)Oc1ccc2cc(Oc3ccc(Cl)c(Cl)c3)c(=O)oc2c1 is greater than or equal to 20 µM.
Completion: y

Prompt: Answer whether TGI of O=C1[C@@H]2C(c3ccccc3[N+](=O)[O-])=[N+](c3ccccc3)O[C@@H]2C(=O)N1c1ccc(Cc2ccc(N3C(=O)[C@H]4C(c5ccccc5[N+](=O)[O-])=[N+](c5ccccc5)O[C@H]4C3=O)cc2)cc1 is greater than or equal to 20 µM.
Completion: y

Prompt: Answer whether TGI of O=C(/C(=C/c1ccc([N+](=O)[O-])cc1)SCc1ccc(Cl)cc1)c1ccc(F)cc1 is greater than or equal to 20 µM.
Completion: y

Prompt: Answer whether TGI of Nc1nc(N)c(-c2ccccc2)c(C(=O)Nc2ccccc2)n1 is greater than or equal to 20 µM.
Completion: y

Prompt: Answer whether TGI of Cc1ccc(-c2cc3c4c(nc5ccccc53)C(=O)c3cccnc3-c4n2)cc1 is greater than or equal to 20 µM.
Completion: n

New cases:
Prompt: Answer whether TGI of CCOC(=O)C(C(=O)OCC)c1ccc([N+](=O)[O-])o1 is greater than or equal to 20 µM.
Completion: y

Prompt: Answer whether TGI of CCCc1cc(=O)n2c(C(=O)Nc3cccc(C(=O)OCC)c3)c(C(=O)Nc3ccc(F)cc3)sc2n1 is greater than or equal to 20 µM.
Completion: y

Prompt: Answer whether TGI of C=CCN1COc2c(cc3c4c(cccc24)C(=O)O3)C1 is greater than or equal to 20 µM.
Completion: y

Prompt: Answer whether TGI of CC1=NN(c2ccc(S(=O)(=O)O)cc2)C(=O)/C1=C/c1ccc(Cl)cc1 is greater than or equal to 20 µM.
Completion: y

Prompt: Answer whether TGI of O=C(CC(C(=O)c1cccs1)c1ccsc1)c1ccccc1 (stereo not given) is greater than or equal to 20 µM.
Completion: y

====

Some molecules, each annotated with its measured TGI.
system: RPMI-8226 leukemia; experiment: NCI tumour cell line growth inhibition, 48 h

Would you please look over these solved cases?
Prompt: Please supply the value of reported TGI for the item CCOC(=O)C1(C(=O)OCC)C[C@@H](C)[C@@H](O)C1
Completion: > 100 µM

Prompt: Please supply the value of reported TGI for the item C/C(=N\NC(=S)NCCCCNC(=S)N/N=C(\C)c1ccccn1)c1ccccc1
Completion: 14.3 µM

Prompt: Please supply the value of reported TGI for the item C/C(=N\NC(=S)N(C)C)c1nc2ncccc2[nH]1
Completion: > 100 µM

Prompt: Please supply the value of reported TGI for the item O=C(SC1=NCCN1)c1cccc2ccccc12
Completion: 94.6 µM

Prompt: Please supply the value of reported TGI for the item CN(C)CCNC(=O)c1cccc2c(NC(CS)C(=O)O)c3ccccc3[n+](C)c12 (stereo unspecified)
Completion: > 100 µM

Pending molecule:
Prompt: Please supply the value of reported TGI for the item CCOC(=O)Nc1nc2ccc(Br)cc2s1
Completion: > 50 µM

Just for reference, PubChem BioAssay (NCI) is where these values come from.
